We begin with a simple list: items and their reported Ki.
Molecular target: DNA-PK (Homo sapiens)
Assay: DNA-PK inhibition assay (radiometric 33P-ATP kinase assay)
Assay type: biochemical
Conditions: Table 1, 100 μM ATP, competitive tight-binding fit
Description: Compounds were screened for their ability to inhibit DNA-PK kinase using a standard radiometric assay. Briefly, in this kinase assay the transfer of the terminal ^33P-phosphate in ^33P-ATP to a peptide substrate is interrogated. […] Following the addition of 50 μL of Ultima Gold™ high efficiency scintillant (obtained from Perkin Elmer), the samples were counted in a Packard TopCount NXT Microplate Scintillation and Luminescence Counter (Packard BioScience). […]

# count of solved cases: 10
INSERT INTO measurements (chemical_structure, test_result) VALUES
  ('COc1ncnc2cc(N3CCOCC3)cc(O[C@H]3CC[C@@H](Nc4nc(C)nc5c4OCC5)CC3)c12', '< 0.001 µM'),
  ('CCOC(=O)N[C@H]1CC[C@@H](Oc2cc(N3CCOCC3)cc3ncncc23)CC1', '< 0.001 µM'),
  ('Cc1nc2c(c(N[C@H]3CC[C@@H](Oc4cc(N5CCOCC5)cc5ncncc45)CC3)n1)OCC2', '< 0.001 µM'),
  ('Cc1nccc(N[C@H]2CC[C@@H](Oc3cc(N4CCOCC4)cc4ncncc34)CC2)n1', '< 0.001 µM'),
  ('Cc1nccc(N[C@H]2CC[C@@H](Oc3cc(N4CCOCC4)cc4ncnc(C#N)c34)CC2)n1', '< 0.001 µM'),
  ('c1ncc2c(O[C@H]3CC[C@@H](Nc4ncnc5ccoc45)CC3)cc(N3CCOCC3)cc2n1', '< 0.001 µM'),
  ('O=C1c2ccccc2C(=O)N1[C@H]1CC[C@@H](Oc2cc(N3CCOCC3)cc3ncncc23)CC1', '0.001 to 0.01 µM'),
  ('CNC(=O)c1ccnc(N[C@H]2CC[C@@H](Oc3cc(N4CCOCC4)cc4ncnc(OC)c34)CC2)n1', '< 0.001 µM'),
  ('COCC(=O)N[C@H]1CC[C@@H](Oc2cc(N3CCOCC3)cc3ncncc23)CC1', '0.001 to 0.01 µM'),
  ('O=C(N[C@H]1CC[C@@H](Oc2cc(N3CCOCC3)cc3ncncc23)CC1)C1CC1', '< 0.001 µM');

Query: Given the entry `Cc1nc2c(c(N[C@H]3CC[C@@H](Oc4cc(N5CCOCC5)cc5ncnc(C#N)c45)CC3)n1)OCC2` , report its measured Ki.
Result: < 0.001 µM

Query: I would be grateful if you could share the reported Ki for `CN1CCN(c2cc(N[C@H]3CC[C@@H](Oc4cc(N5CCOCC5)cc5ncncc45)CC3)ncn2)CC1` .
Result: < 0.001 µM

Query: Which Ki is listed for `CNC(=O)c1ccnc(N[C@H]2CC[C@@H](Oc3cc(N4CCOCC4)cc4nc(C)ncc34)CC2)n1` ?
Result: 0.001 to 0.01 µM

====

Recorded IC50 by entry
molecular target: DNA-PK (Homo sapiens, UniProt P78527); test: DNA-PK cellular assay (pDNA-PK Ser2056 sandwich ELISA, NCS-induced DSBs); assay type: cell-based; design: endogenous in cells; host or cells: A549 (human NSCLC); settings: Table 1; pDNA-PK (Ser2056) in A549 cells, NCS 50 ng/ml, 15 minutes

Below: 5 compounds and their reported IC50.
INSERT INTO assay_data (chemical_structure, test_result) VALUES
  ('COc1ncnc2cc(N3CCOCC3)cc(O[C@H]3CC[C@@H](Nc4ccnc(C)n4)CC3)c12', '< 0.1 µM'),
  ('O=C1c2ccccc2C(=O)N1[C@H]1CC[C@@H](Oc2cc(N3CCOCC3)cc3ncncc23)CC1', '0.1 to 1 µM'),
  ('Cc1nccc(N[C@H]2CC[C@@H](Oc3cc(N4CCOCC4)cc4ncn(C)c(=O)c34)CC2)n1', '0.1 to 1 µM'),
  ('Cn1cnc(C(=O)N[C@H]2CC[C@@H](Oc3cc(N4CCOCC4)cc4ncncc34)CC2)c1', '0.1 to 1 µM'),
  ('CNC(=O)c1ccnc(N[C@H]2CC[C@@H](Oc3cc(N4CCOCC4)cc4ncn(C)c(=O)c34)CC2)n1', '0.1 to 1 µM');

Query: IC50 lookup needed for `Cc1nc2c(c(N[C@H]3CC[C@@H](Oc4cc(N5CCOCC5)cc5ncnc(C#N)c45)CC3)n1)OCC2` , thanks.
Result: < 0.1 µM

Query: Consider the compound shown here: `Cn1ccc(N[C@H]2CC[C@@H](Oc3cc(N4CCOCC4)cc4ncncc34)CC2)n1` What is its recorded IC50?
Result: < 0.1 µM

Query: Please give the measured IC50 for this compound: `CN1CCN(c2nccc(N[C@H]3CC[C@@H](Oc4cc(N5CCOCC5)cc5ncncc45)CC3)n2)CC1`
Result: < 0.1 µM

Query: Need IC50, item `CNC(=O)c1ccnc(N[C@H]2CC[C@@H](Oc3cc(N4CCOCC4)cc4ncnc(OC)c34)CC2)n1`
Result: < 0.1 µM

Query: I have this compound here, `Cc1nccc(N[C@H]2CC[C@@H](Oc3cc(N4CCOCC4)cc4ncnc(C#N)c34)CC2)n1` , and I need its recorded IC50.
Result: < 0.1 µM

Query: Which IC50 is reported for this compound? `CNC(=O)c1ccnc(N[C@H]2CC[C@@H](Oc3cc(N4CCOCC4)cc4nc[nH]c(=O)c34)CC2)n1`
Result: ≥ 1 µM

Query: // query IC50 value for entry `COCC(=O)N[C@H]1CC[C@@H](Oc2cc(N3CCOCC3)cc3ncncc23)CC1`
Result: ≥ 1 µM

Query: Using the record for `O=C(N[C@H]1CC[C@@H](Oc2cc(N3CCOCC3)cc3ncncc23)CC1)C1CC1` , report its IC50.
Result: < 0.1 µM

Query: IC50 lookup needed for `O=C(N[C@H]1CC[C@@H](Oc2cc(N3CCOCC3)cc3ncncc23)CC1)c1ccncn1` , thanks.
Result: < 0.1 µM
